# targetOrSystem: mouse importin-α2 (residues 70–498) (mouse, UniProt P52293 70-498)
# assayOverview: ITC
endpointLabel: Kd (nM)
Use nM as the unit, but write only the number.

// Kd lookup, binder = RKRARAEKKALKKKKKIRGPEKRGADEDDEKEWGDDEEEQPSKRRRVEN (domain or fragment) [SART3 NLS (residues 601–649)] , result: 210
